Biological target: T1, YDL085C-A (S. cerevisiae, UniProt Q3E7B7 1-68)
T1 sequence: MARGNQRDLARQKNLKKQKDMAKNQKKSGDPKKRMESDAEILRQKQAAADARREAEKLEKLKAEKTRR
Experiment: fluorescence anisotropy
REPORTED ENDPOINT: pKd
Please keep in mind that pKd is minus log10 of the molar concentration; only the number is needed.

Request: Which pKd reading was recorded for the binder ACUGCUAGAGAUUUUCCACAU (ssRNA) [Cy3-R21(-)] ?
Result: 5.63
